testSystem: HCV polymerase (Hepatitis C virus genotype 1b, UniProt P26663)
Construct: 2.5 pmoles (0.15 μg) HCV polymerase protein in a final volume of 75 μL
Sequence (P26663 2420-3010): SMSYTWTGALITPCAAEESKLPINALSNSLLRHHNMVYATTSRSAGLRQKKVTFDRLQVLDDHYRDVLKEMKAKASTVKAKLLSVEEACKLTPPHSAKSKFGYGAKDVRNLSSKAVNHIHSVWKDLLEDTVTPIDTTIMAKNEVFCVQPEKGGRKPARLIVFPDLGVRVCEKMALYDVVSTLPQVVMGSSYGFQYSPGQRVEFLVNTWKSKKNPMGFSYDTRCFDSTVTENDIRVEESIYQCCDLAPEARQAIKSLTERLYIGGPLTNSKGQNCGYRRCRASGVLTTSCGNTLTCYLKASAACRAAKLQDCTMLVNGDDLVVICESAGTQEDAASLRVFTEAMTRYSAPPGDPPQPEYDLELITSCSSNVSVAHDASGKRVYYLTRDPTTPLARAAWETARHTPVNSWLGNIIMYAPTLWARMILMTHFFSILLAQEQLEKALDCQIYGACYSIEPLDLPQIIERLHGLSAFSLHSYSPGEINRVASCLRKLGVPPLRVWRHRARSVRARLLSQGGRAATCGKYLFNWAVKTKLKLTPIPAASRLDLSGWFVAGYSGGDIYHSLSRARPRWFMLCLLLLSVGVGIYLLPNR
assayExplanation: HCV polymerase primer/template-directed transcription assay (32P-GTP incorporation, filter binding)
Format: biochemical
testConditions: recombinant HCV polymerase; 30 minutes at 30° C.; concentration giving 50% inhibition of polymerase-directed transcription; read-out: IC50
propertyMeasured: IC50 (nM)
Response body: numeric value in nM, unit text excluded.

>  <compound>
COc1ccc(CCC2(C3CCCC3)CC(O)=C(SCc3ccccn3)C(=O)O2)cc1Cl (stereo not shown) [C(107)]

>  <unitSpec>
nM

>  <IC50>
160

$$$$

Query :: What does the record list as IC50 for COc1ccc(CCC2(C3CCCC3)CC(O)=C(Cc3ccc(C#N)cc3)C(=O)O2)cc1Cl (stereo not shown) [B(22)] ?
Result :: 1200

Query :: Please look up its IC50: COc1ccc(CCC2(C3CCCC3)CC(O)=C(Cc3ccc(-c4csnn4)cc3)C(=O)O2)cc1Cl (stereo not shown) [B(05)]
Result :: 130

Query :: Record request: IC50 value, item Cc1cnc2nc(CC3C(=O)CC(CCc4ccc(C5(C#N)CC5)c(F)c4)(C4CCCC4)OC3=O)nn2c1 (stereo not shown) [A(113)]
Result :: 8

====

testSystem: HCV polymerase (Hepatitis C virus genotype 1b)
Construct: 2.5 pmoles (0.15 μg) HCV polymerase protein in a final volume of 75 μL
assayExplanation: HCV polymerase primer/template-directed transcription assay (32P-GTP incorporation, filter binding)
Format: biochemical
testConditions: recombinant HCV polymerase; 30 minutes at 30° C.; concentration giving 50% inhibition of polymerase-directed transcription; read-out: IC50
propertyMeasured: IC50 (nM)
Write the answer as a number in nM, unit excluded.

Would you please look over these solved cases?
>  <compound>
COC(=O)C(C)(C)c1ccc(CCC2(C3CCCC3)CC(=O)CC(=O)O2)cc1 (stereo not drawn)

>  <testSystem>
HCV polymerase (Hepatitis C virus genotype 1b)

>  <unitSpec>
nM

>  <IC50>
5000

$$$$
>  <compound>
COc1ccc(CCC2(C3CCCC3)CC(O)=C(Sc3nc4ncccc4[nH]3)C(=O)O2)cc1Cl (stereo not drawn)

>  <testSystem>
HCV polymerase (Hepatitis C virus genotype 1b)

>  <unitSpec>
nM

>  <IC50>
35

$$$$

Now for another entry.
Query :: Need IC50 of CC(C)(C#N)c1ccc(CCC2(C3CCCC3)CC(=O)C(Cc3nc4ncccn4n3)C(=O)O2)cc1F (racemic) , thanks.
Result :: 8

====

testSystem: HCV polymerase (Hepatitis C virus genotype 1b, UniProt P26663)
Construct: 2.5 pmoles (0.15 μg) HCV polymerase protein in a final volume of 75 μL
assayExplanation: HCV polymerase primer/template-directed transcription assay (32P-GTP incorporation, filter binding)
Format: biochemical
testConditions: recombinant HCV polymerase; 30 minutes at 30° C.; concentration giving 50% inhibition of polymerase-directed transcription; read-out: IC50
Measured IC50 of individual entries
Please respond with the number in nM and leave the unit unwritten.

The examples below pair each entry with its known result.
>  <compound>
O=C1CC(=O)OC(CCc2ccc(-c3cc4ccccc4s3)c(F)c2)(C2CCCC2)C1 (stereo not shown) [A(10)]

>  <IC50 [nM]>
8100

$$$$
>  <compound>
COc1ccc(CCC2(C3CCCC3)CC(O)=C(Sc3nnc(-c4ccncc4)o3)C(=O)O2)cc1Cl (stereo not shown) [C(104)]

>  <IC50 [nM]>
310

$$$$
>  <compound>
O=C1CC(=O)OC(CCc2ccc(CCO)cc2)(C2CCCC2)C1 (stereo not shown) [A(79)]

>  <IC50 [nM]>
1000

$$$$

Then this compound:
Query :: Which measured IC50 value corresponds to C[C@@H](O)c1ccc(CCC2(C3CCCC3)CC(=O)CC(=O)O2)cc1 (stereo partly shown) [A(35)] ?
Result :: 4100

====

testSystem: HCV polymerase (Hepatitis C virus genotype 1b)
Construct: 2.5 pmoles (0.15 μg) HCV polymerase protein in a final volume of 75 μL
assayExplanation: HCV polymerase primer/template-directed transcription assay (32P-GTP incorporation, filter binding)
Assay type: biochemical
testConditions: recombinant HCV polymerase; 30 minutes at 30° C.; concentration giving 50% inhibition of polymerase-directed transcription; read-out: IC50
pIC50: −log10 of the molar value.
Label MET when pIC50 is at or above 7; anything below gets NOT MET.

>  <molecule>
O=C1CC(=O)OC(CCc2ccc(-c3ccccc3)c(F)c2)(C2CCCC2)C1 (stereo not shown)

>  <labelValue>
NOT MET

$$$$
>  <molecule>
Cc1cc(C)n2nc(CC3=C(O)CC(CCc4ccc(O)c(CC(F)(F)F)c4)(C4CCCC4)OC3=O)nc2n1 (stereo not shown)

>  <labelValue>
MET

$$$$

Query :: Assess whether reported pIC50 for CCc1cc(CCC2(C3CCCC3)CC(O)=C(Cc3nc4ncccn4n3)C(=O)O2)cc(CC)c1O (stereo not shown) sits at 7 or higher.
Result :: MET

Query :: Assess whether reported pIC50 for C[C@@H](NS(C)(=O)=O)c1ccc(CCC2(C3CCCC3)CC(=O)CC(=O)O2)cc1 (stereo partly shown) sits at 7 or higher.
Result :: NOT MET

Query :: Threshold query (pIC50 >= 7) on CC(C)(C#N)c1ccc(OCC2(C3CCCC3)CC(=O)CC(=O)O2)cc1F (stereo not shown)
Result :: NOT MET

Query :: Check this molecule for pIC50 at or above 7: COc1ccc(CCC2(C3CCCC3)CC(O)=C(C(=O)Cc3ccccn3)C(=O)O2)cc1Cl (stereo not shown)
Result :: NOT MET

Query :: Reported pIC50 at or above 7? CCNC(=O)c1ccc(CCC2(C3CCCC3)CC(=O)CC(=O)O2)cc1F (stereo not shown)
Result :: NOT MET

Query :: Quick check, pIC50 >= 7? COc1cc(OC)c(CCC2(C3CCCC3)CC(O)=C(Cc3nc4nc(C)cc(C)n4n3)C(=O)O2)cc1Cl (stereo not shown)
Result :: NOT MET

Query :: Decide: is the reported value of pIC50 for CCc1cc(CCC2(C3CCCC3)CC(O)=C(Cc3nc4ncc(Cl)cn4n3)C(=O)O2)cc(CC)c1O (stereo not shown) equal to or greater than 7?
Result :: MET

====

testSystem: HCV polymerase (Hepatitis C virus genotype 1b, UniProt P26663)
Construct: 2.5 pmoles (0.15 μg) HCV polymerase protein in a final volume of 75 μL
assayExplanation: HCV polymerase primer/template-directed transcription assay (32P-GTP incorporation, filter binding)
Format: biochemical
testConditions: recombinant HCV polymerase; 30 minutes at 30° C.; concentration giving 50% inhibition of polymerase-directed transcription; read-out: IC50
Here the recorded IC50 is given for each entry.
Expressed in nM, but write only the number.

>  <molecule>
Cc1cc(C)n2nc(CC3=C(O)CC(CCc4ccc(OC(C)C)c(F)c4)(C4CCCC4)OC3=O)nc2n1 (single isomer, unassigned) [J(3)]

>  <IC50 (nM)>
5

$$$$

Query :: Record request: IC50 value, item CCc1cc(CCC2(C3CCCC3)CC(O)=C(Cc3nc[nH]c3C)C(=O)O2)c(OC)cc1O (stereo not shown) [A(156)]
Result :: 21

Query :: What measured IC50 goes with COc1cc(OC)c(CCC2(C3CCCC3)CC(O)=C(Sc3nc4nc[nH]c(=O)c4[nH]3)C(=O)O2)cc1Cl (stereo not shown) [C(70)] ?
Result :: 7.4

Query :: What value of IC50 has been reported for the following molecule? Cc1cc(C)n2nc(CC3=C(O)CC(CCc4ccc(C5(C#N)CCCC5)c(F)c4)(C4CCCC4)OC3=O)nc2n1 (stereo not shown) [A(188)]
Result :: 6

====

testSystem: HCV polymerase (Hepatitis C virus genotype 1b, UniProt P26663)
Construct: 2.5 pmoles (0.15 μg) HCV polymerase protein in a final volume of 75 μL
assayExplanation: HCV polymerase primer/template-directed transcription assay (32P-GTP incorporation, filter binding)
Assay type: biochemical
testConditions: @ 50 uM compound; given where IC50 was impractical to calculate; read-out: percent inhibition
Kind request: treat 2% as inclusive, so inhibition at 50 µM at 2% or higher is rule met, anything lower is rule not met.

Query :: Kindly determine if inhibition at 50 µM recorded for O=C1CC(=O)OC(CCN2CCCC2=O)(C2CCCC2)C1 (centres unmarked) is above or exactly 2%.
Result :: rule met

Query :: Could you verify whether the entry CCC1(CCc2ccc(OC)cc2)CC(=O)CC(=O)O1 (centres unmarked) shows inhibition at 50 µM of no less than 2%?
Result :: rule not met

Query :: Say whether Cc1cc(C)n2nc(CC3=C(O)CC(CCC(=O)NC4CCN(C(=O)OC(C)(C)C)CC4)(C4CCCC4)OC3=O)nc2n1 (centres unmarked) shows inhibition at 50 µM of 2% or more.
Result :: rule met

Query :: Threshold query (inhibition at 50 µM >= 2%) on C=CCC1(CCc2ccc(OC)cc2)CC(=O)CC(=O)O1 (centres unmarked)
Result :: rule met
